- System: HepG2
- assay_method_text: Antiproliferative activity against human HepG2 cells after 48 hrs by MTT assay
- Assay type: functional, cell-based
- condition_parameters: HepG2, 48 h
pIC50: −log10 of the molar value.
Listed here are molecules together with their documented pIC50.

Consider the worked cases shown below.
| molecule | recorded_value |
| --- | --- |
| COc1ccccc1-n1nncc1CN1C(=O)C2(C(C#N)=C(N)Oc3c(N)cc4nc5ccccc5nc4c32)c2ccccc21 (configuration not stated) | < 4.30 |
| COc1ccc(-n2nncc2CN2C(=O)C3(C(C#N)=C(N)Oc4c(N)cc5nc6ccccc6nc5c43)c3ccccc32)cc1 (configuration not stated) | < 4.30 |
| Cc1cccc(-n2nncc2CN2C(=O)C3(C(C#N)=C(N)Oc4c3c3nc5ccccc5nc3c3ccccc43)c3ccccc32)c1 (configuration not stated) | < 4.30 |
| Cc1ccc(-n2nncc2CN2C(=O)C3(C(C#N)=C(N)Oc4c(N)cc5nc6ccccc6nc5c43)c3ccccc32)cc1C (configuration not stated) | < 4.30 |
| COc1ccc(OC)c(-n2nncc2CN2C(=O)C3(C(C#N)=C(N)Oc4c(N)cc5nc6ccccc6nc5c43)c3ccccc32)c1 (configuration not stated) | 4.35 |
| CCOc1ccc(-n2nncc2CN2C(=O)C3(C(C#N)=C(N)Oc4c(N)cc5nc6ccccc6nc5c43)c3ccccc32)cc1 (configuration not stated) | < 4.30 |

Exercise: For the molecule shown here, N#CC1=C(N)Oc2c(N)cc3nc4ccccc4nc3c2C12C(=O)N(Cc1cnnn1-c1ccccc1Cl)c1ccccc12 (configuration not stated) , give the reported pIC50.
Key: 4.47

----------
Listed here are compounds together with their documented IC50.
- System: HepG2
- assay_method_text: Antiproliferative activity against human HepG2 cells after 48 hrs by MTT assay
- Assay type: functional, cell-based
- condition_parameters: HepG2, 48 h

Consider the worked cases shown below.
| compound | property_name | recorded_value |
| --- | --- | --- |
| Cc1ccc(-n2nncc2CN2C(=O)C3(C(C#N)=C(N)Oc4c3c3nc5ccccc5nc3c3ccccc43)c3ccccc32)c(C)c1 (stereo not given) | IC50 | > 50 µM |
| Cc1ccc(-n2nncc2CN2C(=O)C3(C(C#N)=C(N)Oc4c3c3nc5ccccc5nc3c3ccccc43)c3ccccc32)cc1Cl (stereo not given) | IC50 | > 50 µM |
| CCc1cccc(C)c1-n1nncc1CN1C(=O)C2(C(C#N)=C(N)Oc3c(N)cc4nc5ccccc5nc4c32)c2ccccc21 (stereo not given) | IC50 | > 50 µM |

Exercise: For the compound shown here, Cc1cccc(-n2nncc2CN2C(=O)C3(C(C#N)=C(N)Oc4c(N)cc5nc6ccccc6nc5c43)c3ccccc32)c1 (stereo not given) , give the reported IC50.
Key: > 50 µM

Exercise: For the compound shown here, Cc1ccc(C)c(-n2nncc2CN2C(=O)C3(C(C#N)=C(N)Oc4c(N)cc5nc6ccccc6nc5c43)c3ccccc32)c1 (stereo not given) , give the reported IC50.
Key: > 50 µM

Exercise: For the compound shown here, CC(=O)Nc1ccc(-n2nncc2CN2C(=O)C3(C(C#N)=C(N)Oc4c(N)cc5nc6ccccc6nc5c43)c3ccccc32)cc1 (stereo not given) , give the reported IC50.
Key: > 50 µM

Exercise: For the compound shown here, Cc1ccc(-n2nncc2CN2C(=O)C3(C(C#N)=C(N)Oc4c(N)cc5nc6ccccc6nc5c43)c3ccccc32)cc1Cl (stereo not given) , give the reported IC50.
Key: > 50 µM

Exercise: For the compound shown here, CC[C@@]1(O)C(=O)OCc2c1cc1n(c2=O)Cc2cc3cc(O)ccc3nc2-1 [HYDROXYCAMPTOTHECIN] , give the reported IC50.
Key: 10.3 µM

----------
Listed here are molecules together with their documented pIC50.
- Test system: A549
- assay_method_text: Antiproliferative activity against human A549 cells after 48 hrs by MTT assay
- Format: functional, cell-based
- condition_parameters: A549, 48 h
pIC50: −log10 of the molar value.

Consider the worked cases shown below.
| molecule | assay_system | pIC50 |
| --- | --- | --- |
| CCc1cccc(CC)c1-n1nncc1CN1C(=O)C2(C(C#N)=C(N)Oc3c(N)cc4nc5ccccc5nc4c32)c2ccccc21 (centres undefined) | A549 | < 4.30 |
| N#CC1=C(N)Oc2c(c3nc4ccccc4nc3c3ccccc23)C12C(=O)N(Cc1cnnn1-c1ccc([N+](=O)[O-])cc1)c1ccccc12 (centres undefined) | A549 | < 4.30 |
| N#CC1=C(N)Oc2c(N)cc3nc4ccccc4nc3c2C12C(=O)N(Cc1cnnn1-c1ccc([N+](=O)[O-])cc1[N+](=O)[O-])c1ccccc12 (centres undefined) | A549 | < 4.30 |

Exercise: For the molecule shown here, N#CC1=C(N)Oc2c(N)cc3nc4ccccc4nc3c2C12C(=O)N(Cc1cnnn1-c1cc(Cl)ccc1Cl)c1ccccc12 (centres undefined) , give the reported pIC50.
Key: 4.96

----------
- System: HepG2
- assay_method_text: Antiproliferative activity against human HepG2 cells after 48 hrs by MTT assay
- Assay type: functional, cell-based
- condition_parameters: HepG2, 48 h
pIC50: −log10 of the molar value.
property_name: pIC50

| compound | assay_system | pIC50 |
| --- | --- | --- |
| N#CC1=C(N)Oc2c(N)cc3nc4ccccc4nc3c2C12C(=O)N(Cc1cnnn1-c1c(Cl)cc(Cl)cc1Cl)c1ccccc12 (configuration not stated) | HepG2 | 4.42 |

A = Cc1cc(C)c(-n2nncc2CN2C(=O)C3(C(C#N)=C(N)Oc4c(N)cc5nc6ccccc6nc5c43)c3ccccc32)c(C)c1 (configuration not stated)
B = CCc1ccccc1-n1nncc1CN1C(=O)C2(C(C#N)=C(N)Oc3c(N)cc4nc5ccccc5nc4c32)c2ccccc21 (configuration not stated)
Exercise: Lower value of pIC50 belongs to which: A or B ? Answer by stating the label of the chosen item.
Key: A
(A: 4.32, B: 4.75)

----------
- Test system: HepG2
- assay_method_text: Antiproliferative activity against human HepG2 cells after 48 hrs by MTT assay
- Format: functional, cell-based
- condition_parameters: HepG2, 48 h
property_name: IC50

| molecule | IC50 |
| --- | --- |
| CCOc1ccc(-n2nncc2CN2C(=O)C3(C(C#N)=C(N)Oc4c3c3nc5ccccc5nc3c3ccccc43)c3ccccc32)cc1 (centres undefined) | > 50 µM |
| CCOc1ccccc1-n1nncc1CN1C(=O)C2(C(C#N)=C(N)Oc3c(N)cc4nc5ccccc5nc4c32)c2ccccc21 (centres undefined) | 30.5 µM |
| N#CC1=C(N)Oc2c(N)cc3nc4ccccc4nc3c2C12C(=O)N(Cc1cnnn1-c1ccc(Cl)cc1Cl)c1ccccc12 (centres undefined) | > 50 µM |

Consider the record given below.
Exercise: For the molecule shown here, N#CC1=C(N)Oc2c(c3nc4ccccc4nc3c3ccccc23)C12C(=O)N(Cc1cnnn1-c1ccc(F)cc1)c1ccccc12 (centres undefined) , give the reported IC50.
Key: > 50 µM

----------
- Tested on: HepG2
- assay_method_text: Antiproliferative activity against human HepG2 cells after 48 hrs by MTT assay
- Assay type: functional, cell-based
- condition_parameters: HepG2, 48 h
property_name: IC50 (µM)

| molecule | IC50 / µM |
| --- | --- |
| N#CC1=C(N)Oc2c(N)cc3nc4ccccc4nc3c2C12C(=O)N(Cc1cnnn1-c1cc(Cl)ccc1Cl)c1ccccc12 (configuration not stated) | 33.1 |

1 = N#CC1=C(N)Oc2c(c3nc4ccccc4nc3c3ccccc23)C12C(=O)N(Cc1cnnn1-c1ccc(S(N)(=O)=O)cc1)c1ccccc12 (configuration not stated)
2 = N#CC1=C(N)Oc2c(c3nc4ccccc4nc3c3ccccc23)C12C(=O)N(Cc1cnnn1-c1cccc(S(N)(=O)=O)c1)c1ccccc12 (configuration not stated)
Exercise: Between 1 and 2 , which one shows the larger IC50 value? Answer by stating the label of the chosen item.
Key: 1

----------
- Tested on: HepG2
- assay_method_text: Antiproliferative activity against human HepG2 cells after 48 hrs by MTT assay
- Format: functional, cell-based
- condition_parameters: HepG2, 48 h
Listed here are compounds together with their documented IC50.

Consider the worked cases shown below.
| compound | property_name | recorded_value |
| --- | --- | --- |
| CCOc1ccccc1-n1nncc1CN1C(=O)C2(C(C#N)=C(N)Oc3c2c2nc4ccccc4nc2c2ccccc32)c2ccccc21 (stereo unspecified) | IC50 | > 50 µM |
| COc1ccc(-n2nncc2CN2C(=O)C3(C(C#N)=C(N)Oc4c3c3nc5ccccc5nc3c3ccccc43)c3ccccc32)cc1 (stereo unspecified) | IC50 | > 50 µM |
| N#CC1=C(N)Oc2c(c3nc4ccccc4nc3c3ccccc23)C12C(=O)N(Cc1cnnn1-c1ccc(Br)cc1)c1ccccc12 (stereo unspecified) | IC50 | > 50 µM |
| Cc1ccc(C)c(-n2nncc2CN2C(=O)C3(C(C#N)=C(N)Oc4c3c3nc5ccccc5nc3c3ccccc43)c3ccccc32)c1 (stereo unspecified) | IC50 | > 50 µM |
| Cc1ccccc1-n1nncc1CN1C(=O)C2(C(C#N)=C(N)Oc3c(N)cc4nc5ccccc5nc4c32)c2ccccc21 (stereo unspecified) | IC50 | > 50 µM |

Consider the record given below.
Exercise: For the compound shown here, N#CC1=C(N)Oc2c(N)cc3nc4ccccc4nc3c2C12C(=O)N(Cc1cnnn1-c1ccc([N+](=O)[O-])cc1[N+](=O)[O-])c1ccccc12 (stereo unspecified) , give the reported IC50.
Key: 18.4 µM
